These entries and their values trace back to patent US11512090B2.

Below is a list of entries, each paired with its recorded IC50 value.
Target: M2 (Homo sapiens, UniProt P08172)
Sequence (P08172 1-466): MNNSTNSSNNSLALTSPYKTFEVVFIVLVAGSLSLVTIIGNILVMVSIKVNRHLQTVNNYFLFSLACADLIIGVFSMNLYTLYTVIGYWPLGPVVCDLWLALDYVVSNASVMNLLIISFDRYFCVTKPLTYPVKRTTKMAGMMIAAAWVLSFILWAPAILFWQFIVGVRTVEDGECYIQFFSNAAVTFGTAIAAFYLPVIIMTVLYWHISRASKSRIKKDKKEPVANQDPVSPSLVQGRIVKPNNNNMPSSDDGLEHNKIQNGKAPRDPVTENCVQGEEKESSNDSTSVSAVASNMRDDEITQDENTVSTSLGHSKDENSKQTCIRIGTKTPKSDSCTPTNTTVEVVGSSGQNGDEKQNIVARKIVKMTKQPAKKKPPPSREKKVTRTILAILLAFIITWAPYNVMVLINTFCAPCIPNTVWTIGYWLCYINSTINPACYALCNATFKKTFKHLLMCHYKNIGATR
Experiment: In vitro functional assay of muscarinic acetylcholine receptor activity, M2
Type: cell-based
Details: antagonist IC50 at M2; read-out: M2 IC50

Sample records with IC50:
- COMPOUND: "O=C(CCS(=O)(=O)c1cccc2ncsc12)N1CCN(c2ccncc2F)CC1 [Example 16]"
  IC50: "1 to 10 µM"
- COMPOUND: "Cc1cc(F)cnc1N1CCN(C(=O)CCCc2cccc3ncccc23)CC1 [Example 55]"
  IC50: "0.1 to 1 µM"
- COMPOUND: "C[C@H]1CN(c2cnccc2Cl)CCN1C(=O)CCS(=O)(=O)c1cccc2ncsc12 [Example 101]"
  IC50: "1 to 10 µM"
- COMPOUND: "N#Cc1ccc(N2C3CCC2CN(C(=O)C2CC(Cc4cccc5ncsc45)C2)C3)nc1 (centres unmarked) [Example 31]"
  IC50: "1 to 10 µM"

The compound identified as Cc1cc(F)cnc1N1CCN(C(=O)CCCc2cccc3ncsc23)[C@@H](C)C1 [Example 81] registered its IC50 at 0.1 to 1 µM

The compound identified as N#Cc1ccc(N2C3CCC2CN(C(=O)C2CC(=Cc4cccc5cnccc45)C2)C3)nc1 (centres unmarked) [Example 195] registered its IC50 at 1 to 10 µM

The compound identified as Cc1ccc(COCCC(=O)N2CC3CCC(C2)N3c2ccc(C#N)cn2)c2cccnc12 [Example 176] registered its IC50 at 1 to 10 µM

The compound identified as O=C(CCS(=O)(=O)c1cccc2ncsc12)N1CCN(c2ccc(Cl)cn2)CC1 [Example 110] registered its IC50 at > 10 µM

The compound identified as O=C(CCNCc1cccc2ncsc12)N1CC2CCC(C1)N2c1ccc(C(F)(F)F)cn1 [Example 148] registered its IC50 at 1 to 10 µM

The compound identified as C[C@@H]1CN(c2ccncc2Cl)CCN1C(=O)CCCc1cccc2ncccc12 [Example 77] registered its IC50 at 1 to 10 µM

###

target: M2 (Homo sapiens); assay: In vitro functional assay of muscarinic acetylcholine receptor activity, M2; assay type: cell-based; conditions: antagonist IC50 at M2; read-out: M2 IC50
OBSERVABLE: IC50

Sample records with IC50:
- COMPOUND: "Cc1cc(F)cnc1N1CCN(C(=O)CCCc2cccc3ncncc23)[C@@H](C)C1"
  IC50: "1 to 10 µM"
- COMPOUND: "Cc1cc(F)cnc1N1C[C@H]2C[C@@H]1CN2C(=O)CCCc1cccc2ncccc12 (racemic)"
  IC50: "1 to 10 µM"
- COMPOUND: "COc1cnc2cccc(CCCC(=O)N3CCN(c4ccncc4F)CC3)c2c1"
  IC50: "> 10 µM"
- COMPOUND: "N#Cc1cc(N2CCN(C(=O)CCCc3cccc4ncccc34)CC2)ccn1"
  IC50: "0.1 to 1 µM"
- COMPOUND: "Cc1cc(N2C3CCC2CN(C(=O)[C@H]2C[C@H](Oc4cccc5ncsc45)C2)C3)ccn1"
  IC50: "1 to 10 µM"

The compound identified as O=C(N1CC(Oc2cccc3ncccc23)C1)N1C[C@H]2CC[C@@H](C1)N2c1ccc(F)cn1 registered its IC50 at 1 to 10 µM

The compound identified as N#Cc1cc(N2C3CCC2CN(C(=O)CCNCc2c(F)ccc4nccn24)C3)ccc1F registered its IC50 at > 10 µM

The compound identified as N#Cc1ccc(N2C3CCC2CN(C(=O)CCN(Cc2cccc4ncnn24)C2COC2)C3)nc1 registered its IC50 at > 10 µM
